Entries and their measured IC50 follow.
- Tgt: NK3 (Homo sapiens, UniProt P29371)
- Sequence (P29371 whole entry): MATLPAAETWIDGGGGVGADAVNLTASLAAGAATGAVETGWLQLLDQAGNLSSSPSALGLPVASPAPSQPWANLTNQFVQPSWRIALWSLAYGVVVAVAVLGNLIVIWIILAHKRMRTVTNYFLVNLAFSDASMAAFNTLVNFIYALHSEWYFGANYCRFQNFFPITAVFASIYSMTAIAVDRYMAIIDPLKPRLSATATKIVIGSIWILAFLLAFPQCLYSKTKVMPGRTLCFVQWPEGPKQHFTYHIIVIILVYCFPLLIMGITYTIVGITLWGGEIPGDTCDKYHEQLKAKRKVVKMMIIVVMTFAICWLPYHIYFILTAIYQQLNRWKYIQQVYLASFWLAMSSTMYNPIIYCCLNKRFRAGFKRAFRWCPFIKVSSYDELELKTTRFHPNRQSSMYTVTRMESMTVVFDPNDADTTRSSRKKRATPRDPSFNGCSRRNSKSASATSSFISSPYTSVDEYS
- Method Notes: Signal transduction (ST), intracellular Ca++ (FLIPR), NK3
- Assay type: cell-based
- Condition Parameters: antagonist, read-out: NK3 pIC50 (converted)

Molecule | IC50
O=C(c1cc(C(F)(F)F)cc(C(F)(F)F)c1)N1CC[C@H](N2CCC3(CC2)CCN(S(=O)(=O)c2cc(Cl)sc2Cl)CC3)C[C@H]1Cc1ccccc1 [Compound 97] | ~10 µM
O=C(c1cc(C(F)(F)F)cc(C(F)(F)F)c1)N1CC[C@H](N2CCC3(CC2)CCN(S(=O)(=O)Cc2cccc(Cl)c2)CC3)C[C@H]1Cc1ccccc1 [Compound 127] | > 10 µM
O=C(c1cc2ccccc2o1)N1CCC2(CC1)CCN([C@H]1CCN(C(=O)c3cc(C(F)(F)F)cc(C(F)(F)F)c3)[C@H](Cc3ccccc3)C1)CC2 [Compound 64] | > 10 µM
O=C(C=Cc1ccco1)N1CCC2(CC1)CCN([C@H]1CCN(C(=O)c3cc(C(F)(F)F)cc(C(F)(F)F)c3)[C@H](Cc3ccccc3)C1)CC2 [Compound 84] | > 10 µM
O=C(c1cc(C(F)(F)F)cc(C(F)(F)F)c1)N1CC[C@H](N2CCC3(CC2)CCN(S(=O)(=O)c2cc(Cl)c(Cl)cc2Cl)CC3)C[C@H]1Cc1ccccc1 [Compound 115] | > 10 µM
CN1CCC=C(C(=O)N2CCC3(CC2)CCN([C@H]2CCN(C(=O)c4cc(C(F)(F)F)cc(C(F)(F)F)c4)[C@H](Cc4ccccc4)C2)CC3)C1 [Compound 48] | > 10 µM
Cn1cnc(C(=O)N2CCC3(CC2)CCN([C@H]2CCN(C(=O)c4cc(C(F)(F)F)cc(C(F)(F)F)c4)[C@H](Cc4ccccc4)C2)CC3)c1 [Compound 34] | > 10 µM
O=C(c1ccc2nonc2c1)N1CCC2(CC1)CCN([C@H]1CCN(C(=O)c3cc(C(F)(F)F)cc(C(F)(F)F)c3)[C@H](Cc3ccccc3)C1)CC2 [Compound 68] | > 10 µM
Cn1cccc1C(=O)N1CCC2(CC1)CCN([C@H]1CCN(C(=O)c3cc(C(F)(F)F)cc(C(F)(F)F)c3)[C@H](Cc3ccccc3)C1)CC2 [Compound 33] | > 10 µM
O=C(Cn1cnnn1)N1CCC2(CC1)CCN([C@H]1CCN(C(=O)c3cc(C(F)(F)F)cc(C(F)(F)F)c3)[C@H](Cc3ccccc3)C1)CC2 [Compound 77] | > 10 µM
O=C(c1ccc(=O)[nH]c1)N1CCC2(CC1)CCN([C@H]1CCN(C(=O)c3cc(C(F)(F)F)cc(C(F)(F)F)c3)[C@H](Cc3ccccc3)C1)CC2 [Compound 57] | > 10 µM

---

- Tgt: NK3 (Homo sapiens)
- Method Notes: Signal transduction (ST), intracellular Ca++ (FLIPR), NK3
- Format: cell-based
- Condition Parameters: antagonist, read-out: NK3 pIC50 (converted)
IC50 for assorted compounds
Quantity Measured: IC50

Compound | Tgt | Quantity Measured | Recorded Measurement
CC1(C(=O)N2CCC3(CC2)CCN([C@H]2CCN(C(=O)c4cc(C(F)(F)F)cc(C(F)(F)F)c4)[C@H](Cc4ccccc4)C2)CC3)CCCCC1 | NK3 (Homo sapiens) | IC50 | > 10 µM
Cc1ccc(OCC(=O)N2CCC3(CC2)CCN([C@H]2CCN(C(=O)c4cc(C(F)(F)F)cc(C(F)(F)F)c4)[C@H](Cc4ccccc4)C2)CC3)c(C)c1 | NK3 (Homo sapiens) | IC50 | > 10 µM
O=C(c1cc(C(F)(F)F)cc(C(F)(F)F)c1)N1CC[C@H](N2CCC3(CC2)CCN(S(=O)(=O)c2cc(Cl)cc(Cl)c2)CC3)C[C@H]1Cc1ccccc1 | NK3 (Homo sapiens) | IC50 | > 10 µM
O=C(c1ccsc1)N1CCC2(CC1)CCN(C(=O)[C@H]1CCN(C(=O)c3cc(C(F)(F)F)cc(C(F)(F)F)c3)[C@H](Cc3ccccc3)C1)CC2 | NK3 (Homo sapiens) | IC50 | > 10 µM
O=C(C(CO)c1ccccc1)N1CCC2(CC1)CCN([C@H]1CCN(C(=O)c3cc(C(F)(F)F)cc(C(F)(F)F)c3)[C@H](Cc3ccccc3)C1)CC2 (some centres unmarked) | NK3 (Homo sapiens) | IC50 | > 10 µM
O=C(C1CC1)N1CCCC2(CCN([C@@H]3CCN(C(=O)c4cc(C(F)(F)F)cc(C(F)(F)F)c4)[C@H](Cc4ccccc4)C3)CC2)C1 | NK3 (Homo sapiens) | IC50 | > 10 µM
O=C(CC1CCCCC1)N1CCC2(CC1)CCN([C@H]1CCN(C(=O)c3cc(C(F)(F)F)cc(C(F)(F)F)c3)[C@H](Cc3ccccc3)C1)CC2 | NK3 (Homo sapiens) | IC50 | > 10 µM
O=C(c1ccsc1)N1CCCC2(CCN([C@H]3CCN(C(=O)c4cc(C(F)(F)F)cc(C(F)(F)F)c4)[C@H](Cc4ccccc4)C3)CC2)C1 | NK3 (Homo sapiens) | IC50 | > 10 µM

---

- Tgt: NK1 (Homo sapiens, UniProt P25103)
- Sequence (P25103 whole entry): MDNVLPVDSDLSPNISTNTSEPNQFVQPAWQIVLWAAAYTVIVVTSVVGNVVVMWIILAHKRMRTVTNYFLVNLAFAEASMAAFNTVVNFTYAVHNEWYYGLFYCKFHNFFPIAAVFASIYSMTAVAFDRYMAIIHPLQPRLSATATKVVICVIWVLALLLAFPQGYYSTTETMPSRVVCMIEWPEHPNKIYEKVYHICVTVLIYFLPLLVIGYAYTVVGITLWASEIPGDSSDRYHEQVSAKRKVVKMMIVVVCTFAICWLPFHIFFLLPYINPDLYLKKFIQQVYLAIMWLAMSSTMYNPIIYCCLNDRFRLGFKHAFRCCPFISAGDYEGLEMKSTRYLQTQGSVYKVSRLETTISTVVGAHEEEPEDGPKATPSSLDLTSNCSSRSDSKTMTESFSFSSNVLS
- Method Notes: Signal transduction (ST), intracellular Ca++ (FLIPR), functional NK1 antagonistic activity
- Assay type: cell-based
- Condition Parameters: antagonist, read-out: NK1 pIC50 (converted)
As shown below, each of these molecules has a reported IC50 value.

Molecule | Tgt | Units Label | IC50
Cc1ccc(OCC(=O)N2CCC3(CC2)CCN([C@H]2CCN(C(=O)c4cc(C(F)(F)F)cc(C(F)(F)F)c4)[C@H](Cc4ccccc4)C2)CC3)c(C)c1 | NK1 (Homo sapiens, UniProt P25103) | nM | 389
O=C(c1ccoc1)N1CCC2(CC1)CCN([C@H]1CCN(C(=O)c3cc(C(F)(F)F)cc(C(F)(F)F)c3)[C@H](Cc3ccc(F)c(F)c3)C1)CC2 | NK1 (Homo sapiens, UniProt P25103) | nM | 23.4
Cc1ccsc1C(=O)N1CCC2(CC1)CCN([C@H]1CCN(C(=O)c3cc(C(F)(F)F)cc(C(F)(F)F)c3)[C@H](Cc3ccccc3)C1)CC2 | NK1 (Homo sapiens, UniProt P25103) | nM | 75.9
Cc1nc2ccc(C(=O)N3CCC4(CC3)CCN([C@H]3CCN(C(=O)c5cc(C(F)(F)F)cc(C(F)(F)F)c5)[C@H](Cc5ccccc5)C3)CC4)cc2[nH]1 | NK1 (Homo sapiens, UniProt P25103) | nM | 57.5
O=C(C1CC1)N1CCCC2(CCN([C@@H]3CCN(C(=O)c4cc(C(F)(F)F)cc(C(F)(F)F)c4)[C@H](Cc4ccccc4)C3)CC2)C1 | NK1 (Homo sapiens, UniProt P25103) | nM | 30.9
Cc1cc(C)cc(C(=O)N2CCC(N3CCC4(CCN(C(=O)C5CC5)CC4)CC3)CC2Cc2ccccc2)c1 (stereo not drawn) | NK1 (Homo sapiens, UniProt P25103) | nM | 145

These measurements were taken from patent US7544694B2.
